- Target Desc: T1, hMC1-R (human, UniProt Q01726 1-317)
- T1 construct: whole, on cells; Assayed as membranes of CHO-K1 cells expressing the receptor; also called hMC-R receptor subtype 1; melanocyte-specific receptor (MC1-R)
- T1 sequence (Q01726 whole entry): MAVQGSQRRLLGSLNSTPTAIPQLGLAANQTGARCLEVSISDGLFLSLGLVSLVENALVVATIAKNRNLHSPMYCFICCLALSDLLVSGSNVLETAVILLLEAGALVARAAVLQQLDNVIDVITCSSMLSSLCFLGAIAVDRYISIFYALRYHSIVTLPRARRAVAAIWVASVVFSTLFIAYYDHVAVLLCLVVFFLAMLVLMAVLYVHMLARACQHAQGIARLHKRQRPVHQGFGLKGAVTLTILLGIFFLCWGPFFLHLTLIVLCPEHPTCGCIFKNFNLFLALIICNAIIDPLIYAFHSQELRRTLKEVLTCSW
- Protocol Summary: ratio Ki hMC1-R / Ki hMC4-R, same assay
Bridge positions count the residues as written; N and C are the ends. Square brackets hold non-standard residues; d marks the D form. Pen = CC(C)(S)[C@H](N)C(=O)O; Nle = CCCC[C@H](N)C(=O)O; Ava = NCCCCC(=O)O; GABA = NCCCC(=O)O
Property Label: Ki hMC1-R/MC4-R

[ask] Reported Ki hMC1-R/MC4-R, binder Ac-[Nle][Pen]H[dF]RW[GABA][Pen]-NH2 (disulfide 2-8) [Ac-Nle-c(Pen-His-D-Phe-Arg-Trp-Gaba-Pen)-NH2] : ____
[reply] 0.21

New cases:
[ask] Which Ki hMC1-R/MC4-R value is on record for Ac-[Nle]CH[dF]RW[Ava]C-NH2 (disulfide 2-8; SMILES CCCC[C@H](NC(C)=O)C(=O)N[C@H]1CSSC[C@@H](C(N)=O)NC(=O)CCCCNC(=O)[C@H](Cc2c[nH]c3ccccc23)NC(=O)[C@H](CCCNC(=N)N)NC(=O)[C@@H](Cc2ccccc2)NC(=O)[C@H](Cc2c[nH]cn2)NC1=O) [Ac-Nle-c(Cys-His-D-Phe-Arg-Trp-Apn-Cys)-NH2] ?
[reply] 0.11
